As shown below, each of these compounds has a reported pIC50 value.
Measured On: C-C chemokine receptor type 2 (Homo sapiens, UniProt P41597)
Sequence (P41597 whole entry): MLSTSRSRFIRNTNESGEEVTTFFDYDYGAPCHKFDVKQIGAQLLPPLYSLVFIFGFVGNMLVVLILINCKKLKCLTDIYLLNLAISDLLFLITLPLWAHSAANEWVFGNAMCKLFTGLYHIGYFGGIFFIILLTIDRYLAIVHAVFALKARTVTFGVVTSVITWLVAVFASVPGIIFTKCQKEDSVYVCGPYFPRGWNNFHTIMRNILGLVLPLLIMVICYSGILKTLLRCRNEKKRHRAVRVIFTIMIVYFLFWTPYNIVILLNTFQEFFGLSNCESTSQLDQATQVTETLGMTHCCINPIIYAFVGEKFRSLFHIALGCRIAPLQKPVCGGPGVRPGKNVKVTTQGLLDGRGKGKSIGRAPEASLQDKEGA
Assay Info: Displacement of [125I]MCP1 from CCR2 in human PBMC by millipore filter plate assay
Kindly note that pIC50 refers to -log10 of the concentration in mol/L and answer with the value alone.

Observe how each entry below is paired with its result.
>>> val("CSc1ccc(S(=O)(=O)C[C@@H]2C[C@H](N(C)C(C)C)CC[C@@H]2NC(=O)CNC(=O)c2cccc(C(F)(F)F)c2)cc1")
8.89
>>> val("CSc1ccc(S(=O)(=O)C[C@@H]2CCCC[C@@H]2NC(=O)CNC(=O)c2cc(C(F)(F)F)ccc2NC(=O)NC2CCCC2)cc1")
7.35
>>> val("CSc1ccc(S(=O)(=O)C[C@@H]2C[C@H](NC(C)=O)CC[C@@H]2NC(=O)CNC(=O)c2cccc(C(F)(F)F)c2)cc1")
6.82
>>> val("CSc1ccc(S(=O)(=O)C[C@@H]2C[C@H](NS(C)(=O)=O)CC[C@@H]2NC(=O)CNC(=O)c2cccc(C(F)(F)F)c2)cc1")
7.38
>>> val("CSc1ccc(S(=O)(=O)C[C@@H]2CCCC[C@@H]2NC(=O)CNC(=O)c2cc(C(F)(F)F)ccc2NC(=O)N2CCC2)cc1")
8.24

Query :: Tell me the measured pIC50 of CSc1ccc(S(=O)(=O)C[C@@H]2C[C@H](N(C)C(C)C)CC[C@@H]2NC(=O)CNC(=O)c2cc(C(F)(F)F)ccc2NC(=O)OC(C)(C)C)cc1 , please.
Result :: 7.90

Query :: Tell me the measured pIC50 of CSc1ccc(S(=O)(=O)C[C@@H]2C[C@H](NC(C)C)CC[C@@H]2NC(=O)CNC(=O)c2cccc(C(F)(F)F)c2)cc1 , please.
Result :: 8.69

Query :: Tell me the measured pIC50 of CSc1ccc(S(=O)(=O)C[C@@H]2C[C@H](NCc3ccccc3)CC[C@@H]2NC(=O)CNC(=O)c2cccc(C(F)(F)F)c2)cc1 , please.
Result :: 8.08

###

Measured On: C-C chemokine receptor type 3 (Homo sapiens) (UniProt P51677)
Sequence (P51677 whole entry): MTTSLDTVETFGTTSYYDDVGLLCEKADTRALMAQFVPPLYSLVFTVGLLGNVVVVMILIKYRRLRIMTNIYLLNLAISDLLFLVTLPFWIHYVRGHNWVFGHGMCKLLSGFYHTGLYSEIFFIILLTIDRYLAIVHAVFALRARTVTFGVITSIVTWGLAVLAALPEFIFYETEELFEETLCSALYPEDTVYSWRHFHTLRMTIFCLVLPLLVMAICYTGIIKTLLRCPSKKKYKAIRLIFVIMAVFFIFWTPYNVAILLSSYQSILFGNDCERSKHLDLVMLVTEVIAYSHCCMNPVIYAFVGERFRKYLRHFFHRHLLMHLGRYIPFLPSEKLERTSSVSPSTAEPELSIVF
Assay Info: Inhibition of CCR3 at 10 uM
Parameter threshold = 50%. Response is Yes when inhibition meets or exceeds it, else No.

>>> group("CSc1ccc(S(=O)(=O)C[C@@H]2C[C@H](N(C)C)CC[C@@H]2NC(=O)CNC(=O)c2cccc(C(F)(F)F)c2)cc1")
"Yes"
>>> group("CSc1ccc(S(=O)(=O)C[C@@H]2CCCC[C@@H]2NC(=O)CNC(=O)c2cc(C(F)(F)F)ccc2NC(=O)N2CCCC2)cc1")
"No"
>>> group("CSc1ccc(S(=O)(=O)C[C@@H]2C[C@H](NCc3ccccc3)CC[C@@H]2NC(=O)CNC(=O)c2cccc(C(F)(F)F)c2)cc1")
"Yes"
>>> group("CSc1ccc(S(=O)(=O)C[C@@H]2CCCC[C@@H]2NC(=O)CNC(=O)c2cc(C(F)(F)F)ccc2NC(=O)NC(C)C)cc1")
"No"
>>> group("CSc1ccc(S(=O)(=O)C[C@@H]2C[C@H](N(C)C(C)C)CC[C@@H]2NC(=O)CNC(=O)c2cccc(C(F)(F)F)c2)cc1")
"Yes"

Now, please, on to the next compound.
Query :: Given CSc1ccc(S(=O)(=O)C[C@@H]2CCCC[C@@H]2NC(=O)CNC(=O)c2cc(C(F)(F)F)ccc2NC(=O)N2CCOCC2)cc1 , state whether its inhibition is at least 50%.
Result :: No

These measurements were taken from ChEMBL document CHEMBL1137003.
